Tested on: M. tuberculosis Erdman (ATCC 35801)
protocol: Microplate Alamar Blue Assay
Assay type: cell-based, Mycobacterium tuberculosis
experimental_parameters: MABA; concentration giving ≥ 90% inhibition; 7 days, 37 °C; triplicate
recorded_endpoint: MIC, Erdman (µg/mL)
Your answer should be a plain number; it is taken to be in µg/mL.

Known MIC, Erdman results, listed for orientation:
>  <molecule>
CCCCCCC/C=C\[C@H](O)C#CC#C[C@@H](O)CC

>  <MIC, Erdman / µg/mL>
49.5

$$$$
>  <molecule>
C=CC(O)C#CC#CC(O)/C=C\CCCCCCCCOC(C)=O (stereo not shown)

>  <MIC, Erdman / µg/mL>
1.4

$$$$

Now, please, on to the next molecule.
Given the molecule C=C[C@@H](O)C#CC#C[C@@H](O)/C=C\CCCCCCC and test system M. tuberculosis Erdman (ATCC 35801), the measured MIC, Erdman is 6.0
